Source: ChEMBL document CHEMBL3352249

# STUDY TARGET: Protein farnesyltransferase (Homo sapiens, UniProt P49354+P49356)
# PROTOCOL SUMMARY: Inhibition of human recombinant farnesyltransferase using Dansyl-GCVLS peptide as substrate at 100 uM after 15 mins by fluorescence assay
MEASURE NAME: inhibition (%)

// worked examples, inhibition included
In [3]: df
Out[3]:
                              sample_smiles  endpoint_result
0  C#CCCOC(=O)c1cc(C(=O)c2ccc(Br)cc2)n2ccccc12                0
1      CCCCCCCCCCCCCC/C(C(=O)O)=C(\C)C(=O)O              100

A: C#CCNC(=O)c1cc(C(=O)c2ccc(Br)cc2)n2c(C)cccc12
B: Cc1ccn2c(C(=O)c3ccc(Br)cc3)cc(C(=O)O)c2c1
Input: // compare measured inhibition, left A , right B , return larger To answer, give the label that identifies your chosen option.
Output: A

---

# STUDY TARGET: Protein farnesyltransferase (Homo sapiens, UniProt P49354+P49356)
# PROTOCOL SUMMARY: Inhibition of human recombinant farnesyltransferase using Dansyl-GCVLS peptide as substrate at 100 uM after 15 mins by fluorescence assay
MEASURE NAME: inhibition (%)

// worked examples, inhibition included
                              sample_smiles  endpoint_result
0  C#CCCOC(=O)c1cc(C(=O)c2ccccc2)n2c(C)cccc12               94
1  C#CCNC(=O)c1cc(C(=O)c2ccccc2)n2c(C)cccc12               74
2  C#CCOC(=O)c1cc(C(=O)c2ccccc2)n2c(C)cccc12               93
3  C#CCNC(=O)c1cc(C(=O)c2ccc(Cl)cc2)n2c(C)cccc12               97

P: C#CCNC(=O)c1cc(C(=O)c2ccccc2)n2ccccc12
Q: C#CCCOC(=O)c1cc(C(=O)c2ccc(Cl)cc2)n2ccc(C)cc12
Input: Dear colleague, could you let me know whether P or Q has the lower recorded inhibition? Thanks. State your choice using its label.
Output: Q
(Q: 0%, P: 100%)
